Reference source for all entries: ChEMBL document CHEMBL5724914

experiment: The drug is tested on Z-026 corresponding to metagenome with ENA study accession number: PRJEB37062 and ENA sample accession number: ERS12561825 for biotransformation under anaerobic condition. The drug concentrations were measured over 9 timepoints collected between 0 and 24 hours of incubation by liquid-chromatography-coupled mass spectrometry (LC–MS); note: call rule not given here
run_parameters: 2 µM
value_type: Bacterial Biotransformation

                                   molecule                   value_type                    result
0  CC(C)NCC(O)COc1ccc(CC(N)=O)cc1 (centres undefined)  Bacterial Biotransformation  Compound NOT metabolized
1  OCCN(CCO)c1nc(N2CCCCC2)c2nc(N(CCO)CCO)nc(N3CCCCC3)c2n1  Bacterial Biotransformation      Compound metabolized
2  C[C@]12C=CC(=O)C=C1CC[C@@H]1[C@@H]2C(=O)C[C@@]2(C)[C@H]1CC[C@]2(O)C(=O)CO  Bacterial Biotransformation      Compound metabolized
3                   Clc1cccc(Cl)c1N=C1NCCN1  Bacterial Biotransformation  Compound NOT metabolized

====

run_parameters: human gut metagenome, 24 h, 2 µM
value_type: Bacterial Biotransformation

Example results:
>>> df
                                   molecule                    result
0    COC1=C(OC)C(=O)C(CCCCCCCCCCO)=C(C)C1=O      Compound metabolized
1  CCN(CC)CCNC(=O)c1cc(S(C)(=O)=O)ccc1OC [TIAPRIDE]  Compound NOT metabolized
2  COc1ccnc(C[S+]([O-])c2nc3ccc(OC(F)F)cc3[nH]2)c1OC (stereo unspecified)      Compound metabolized
3  CC1Cc2ccccc2N1NC(=O)c1ccc(Cl)c(S(N)(=O)=O)c1 (stereo unspecified) [INDAPAMIDE]  Compound NOT metabolized
4               N=C(N)NC(=O)Cc1c(Cl)cccc1Cl  Compound NOT metabolized

# context switch: different molecule, same Bacterial Biotransformation
Return reported Bacterial Biotransformation; argument: CC(=O)O[C@]1(C(C)=O)CC[C@H]2[C@@H]3C=C(C)C4=CC(=O)CC[C@]4(C)[C@H]3CC[C@@]21C [MEGESTROL ACETATE]
Compound metabolized

====

run_parameters: human gut metagenome, 24 h, 2 µM
value_type: Bacterial Biotransformation

Example results:
>>> df
                                   molecule                    result
0  O=P1(N(CCCl)CCCl)NCCCO1 (configuration not stated) [CYCLOPHOSPHAMIDE ANHYDROUS]  Compound NOT metabolized
1  CCN(C(C)=O)c1cccc(-c2ccnc3c(C#N)cnn23)c1 [ZALEPLON]      Compound metabolized
2  CC(CCc1ccccc1)NCC(O)c1ccc(O)c(C(N)=O)c1 (configuration not stated) [LABETALOL]  Compound NOT metabolized
3  CCN1CCCC1CNC(=O)c1cc(S(=O)(=O)CC)c(N)cc1OC (configuration not stated) [AMISULPRIDE]  Compound NOT metabolized
4  COc1cc(NC(C)CCCN)c2ncccc2c1.O=P(O)(O)O.O=P(O)(O)O (configuration not stated) [PRIMAQUINE PHOSPHATE]  Compound NOT metabolized

Return reported Bacterial Biotransformation; argument: C[C@@H](c1ncncc1F)[C@](O)(Cn1cncn1)c1ccc(F)cc1F [VORICONAZOLE]
Compound metabolized

Return reported Bacterial Biotransformation; argument: C#C[C@]1(OC(C)=O)CC[C@H]2[C@@H]3CCC4=C/C(=N/O)CC[C@@H]4[C@H]3CC[C@@]21CC [NORGESTIMATE]
Compound NOT metabolized

====

run_parameters: human gut metagenome, 24 h, 2 µM
value_type: Bacterial Biotransformation

Example results:
molecule	result
CCN(CC)CCOC(=O)C1(C2CCCCC2)CCCCC1 [DICYCLOMINE]	Compound metabolized
N#Cc1ccc2c(c1)N(CCCN1CCC(O)CC1)c1ccccc1S2 [PERICIAZINE]	Compound metabolized
CC[C@@]1(O)C(=O)OCc2c1cc1n(c2=O)Cc2cc3c(CN(C)C)c(O)ccc3nc2-1 [TOPOTECAN]	Compound NOT metabolized
C=C[C@H]1CN2CC[C@H]1C[C@H]2[C@H](O)c1ccnc2ccc(OC)cc12.C=C[C@H]1CN2CC[C@H]1C[C@H]2[C@H](O)c1ccnc2ccc(OC)cc12.O.O.O=S(=O)(O)O [QUININE SULFATE]	Compound NOT metabolized
COCCCC/C(=N\OCCN)c1ccc(C(F)(F)F)cc1.O=C(O)/C=C\C(=O)O [FLUVOXAMINE MALEATE]	Compound NOT metabolized

Return reported Bacterial Biotransformation; argument: COC(=O)C(c1ccccc1)C1CCCCN1 (stereo unspecified) [METHYLPHENIDATE]
Compound NOT metabolized

Return reported Bacterial Biotransformation; argument: CCN1CCCC1CNC(=O)c1cc(S(=O)(=O)CC)c(N)cc1OC (stereo unspecified) [AMISULPRIDE]
Compound NOT metabolized

====

run_parameters: human gut metagenome, 24 h, 2 µM
value_type: Bacterial Biotransformation

compound	value_type	result
CCS(=O)(=O)CCn1c([N+](=O)[O-])cnc1C	Bacterial Biotransformation	Compound metabolized
O=C([O-])C[C@H](O)C[C@H](O)/C=C/c1c(C2CC2)nc2ccccc2c1-c1ccc(F)cc1.O=C([O-])C[C@H](O)C[C@H](O)/C=C/c1c(C2CC2)nc2ccccc2c1-c1ccc(F)cc1.[Ca+2]	Bacterial Biotransformation	Compound metabolized
COc1ccc(C(CN(C)C)C2(O)CCCCC2)cc1 (configuration not stated)	Bacterial Biotransformation	Compound NOT metabolized
Cc1ccccc1C(OCCN(C)C)c1ccccc1.O=C(O)CC(O)(CC(=O)O)C(=O)O (configuration not stated) [ORPHENADRINE CITRATE]	Bacterial Biotransformation	Compound NOT metabolized
CC(C)C[C@H]1C(=O)N2CCC[C@H]2[C@]2(O)O[C@](NC(=O)[C@@H]3C=C4c5cccc6[nH]c(Br)c(c56)C[C@H]4N(C)C3)(C(C)C)C(=O)N12.CS(=O)(=O)O [BROMOCRIPTINE MESYLATE]	Bacterial Biotransformation	Compound NOT metabolized

Return reported Bacterial Biotransformation; argument: C#C[C@]1(OC(C)=O)CC[C@H]2[C@@H]3CCC4=CC(=O)CC[C@@H]4[C@H]3CC[C@@]21C [NORETHINDRONE ACETATE]
Compound metabolized

Return reported Bacterial Biotransformation; argument: COc1cc(NC(C)CCCN)c2ncccc2c1.O=P(O)(O)O.O=P(O)(O)O (configuration not stated) [PRIMAQUINE PHOSPHATE]
Compound NOT metabolized

====

experiment: The drug is tested on WLS-090 corresponding to human gut metagenome with ENA study accession number: PRJEB37062 and ENA sample accession number: ERS12561753 for biotransformation under anaerobic condition. The drug concentrations were measured over 9 timepoints collected between 0 and 24 hours of incubation by liquid-chromatography-coupled mass spectrometry (LC–MS)
run_parameters: 2 µM
value_type: Bacterial Biotransformation

compound	value_type	result
CC(=O)Oc1ccc(C(c2ccc(OC(C)=O)cc2)c2ccccn2)cc1 [BISACODYL]	Bacterial Biotransformation	Compound metabolized
CCCCC(=O)O[C@]1(C(=O)CO)[C@@H](C)C[C@H]2[C@@H]3CCC4=CC(=O)C=C[C@]4(C)[C@@]3(F)[C@@H](O)C[C@@]21C [BETAMETHASONE VALERATE]	Bacterial Biotransformation	Compound metabolized

====

run_parameters: human gut metagenome, 24 h, 2 µM
value_type: Bacterial Biotransformation

Example results:
compound	Bacterial Biotransformation
CC(=O)OCC(=O)[C@@]1(OC(C)=O)[C@@H](C)C[C@H]2[C@@H]3C[C@H](F)C4=CC(=O)C=C[C@]4(C)[C@@]3(F)[C@@H](O)C[C@@]21C [DIFLORASONE DIACETATE]	Compound metabolized
Clc1cccc(Cl)c1N=C1NCCN1	Compound NOT metabolized
O=C([O-])C[C@H](O)C[C@H](O)/C=C/c1c(C2CC2)nc2ccccc2c1-c1ccc(F)cc1.O=C([O-])C[C@H](O)C[C@H](O)/C=C/c1c(C2CC2)nc2ccccc2c1-c1ccc(F)cc1.[Ca+2]	Compound metabolized
CC(CCc1ccccc1)NCC(O)c1ccc(O)c(C(N)=O)c1 (stereo not given)	Compound NOT metabolized

# context switch: different compound, same Bacterial Biotransformation
Return reported Bacterial Biotransformation; argument: CCCN1C[C@H](CSC)C[C@@H]2c3cccc4[nH]cc(c34)C[C@H]21.CS(=O)(=O)O [PERGOLIDE MESYLATE]
Compound NOT metabolized

====

run_parameters: human gut metagenome, 24 h, 2 µM
value_type: Bacterial Biotransformation

Example results:
>>> df
                                   compound                    result
0  CC(C)NCC(O)COc1ccc(CC(N)=O)cc1 (stereo not given)  Compound NOT metabolized
1  COc1ccnc(C[S+]([O-])c2nc3ccc(OC(F)F)cc3[nH]2)c1OC (stereo not given)      Compound metabolized
2  COC(=O)[C@H](c1ccccc1Cl)N1CCc2sccc2C1.O=S(=O)(O)O [CLOPIDOGREL BISULFATE]      Compound metabolized
3    COC1=C(OC)C(=O)C(CCCCCCCCCCO)=C(C)C1=O      Compound metabolized

# context switch: different compound, same Bacterial Biotransformation
Return reported Bacterial Biotransformation; argument: CCN1CCCC1CNC(=O)c1cc(S(=O)(=O)CC)c(N)cc1OC (stereo not given) [AMISULPRIDE]
Compound NOT metabolized
